- study_system: pancreatic lipase (PL) (Sus scrofa, UniProt P00591)
- Construct: purchased Sigma Aldrich Co. (St Louis, MO, USA)
- Sequence (P00591 whole entry): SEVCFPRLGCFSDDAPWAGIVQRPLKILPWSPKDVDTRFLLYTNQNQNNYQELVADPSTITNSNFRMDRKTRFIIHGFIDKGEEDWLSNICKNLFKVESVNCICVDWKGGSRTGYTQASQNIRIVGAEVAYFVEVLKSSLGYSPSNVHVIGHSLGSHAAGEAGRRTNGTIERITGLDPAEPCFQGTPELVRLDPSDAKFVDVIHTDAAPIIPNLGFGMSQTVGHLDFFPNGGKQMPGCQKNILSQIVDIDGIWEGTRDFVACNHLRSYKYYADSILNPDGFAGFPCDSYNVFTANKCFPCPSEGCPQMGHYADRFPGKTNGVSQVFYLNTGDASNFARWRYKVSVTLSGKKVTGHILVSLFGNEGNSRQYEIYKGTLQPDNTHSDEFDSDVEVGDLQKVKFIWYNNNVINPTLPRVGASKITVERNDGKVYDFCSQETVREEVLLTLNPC
- run_description: PL (lipase) inhibition assay
- Assay type: biochemical
- condition_parameters: read-out: IC50 Values Against PL
Measured pIC50 accompanies every entry in the list below.
Give only the number. pIC50 is defined as minus log10 of concentration in molar units.

Input: Look up pIC50 of CC(C)C(=O)OC[C@H]1O[C@H](O[C@H]2[C@H](O)[C@@H](O)[C@@H](O[C@H]3[C@H](O)[C@@H](O)C(O)O[C@@H]3CO)O[C@@H]2CO)[C@H](O)[C@@H](O)[C@@H]1O[C@H]1O[C@H](C)[C@@H](N[C@H]2C=C(CO)[C@@H](O[C@H]3O[C@H](CO)[C@@H](O[C@H]4O[C@H](C)[C@@H](N[C@H]5C=C(CO)[C@@H](O)[C@H](O)[C@H]5O)[C@H](O)[C@H]4O)[C@H](O)[C@H]3O)[C@H](O)[C@H]2O)[C@H](O)[C@H]1O (stereo partly shown) and report it.
Output: 5.26

Input: Look up pIC50 of CC1OC(OC2C(CO)OC(OC3C(CO)=CC(NC4C(C)OC(OC5C(CO)OC(OC6C(CO)OC(OC7C(CO)OC(OC8C(CO)OC(O)C(O)C8O)C(O)C7O)C(O)C6O)C(O)C5O)C(O)C4O)C(O)C3O)C(O)C2O)C(O)C(O)C1NC1C=C(CO)C(O)C(O)C1O (stereo not shown) and report it.
Output: 5.12

Input: Look up pIC50 of CCCC(=O)OC[C@H]1O[C@H](O[C@H]2[C@H](O)[C@@H](O)[C@@H](O[C@H]3[C@H](O)[C@@H](O)[C@@H](O[C@H]4[C@H](O)[C@@H](O)C(O)O[C@@H]4CO)O[C@@H]3CO)O[C@@H]2CO)[C@H](O)[C@@H](O)[C@@H]1O[C@H]1O[C@H](C)[C@@H](N[C@H]2C=C(CO)[C@@H](O)[C@H](O)[C@H]2O)[C@H](O)[C@H]1O (stereo partly shown) and report it.
Output: 4.93

Next compound, pIC50 to be filled in.
Input: Look up pIC50 of CC(C)CC(=O)OC[C@H]1O[C@H](O[C@H]2[C@H](O)[C@@H](O)[C@@H](O[C@H]3[C@H](O)[C@@H](O)C(O)O[C@@H]3CO)O[C@@H]2CO)[C@H](O)[C@@H](O)[C@@H]1O[C@H]1O[C@H](C)[C@@H](N[C@H]2C=C(CO)[C@@H](O[C@H]3O[C@H](CO)[C@@H](O[C@H]4O[C@H](C)[C@@H](N[C@H]5C=C(CO)[C@@H](O)[C@H](O)[C@H]5O)[C@H](O)[C@H]4O)[C@H](O)[C@H]3O)[C@H](O)[C@H]2O)[C@H](O)[C@H]1O (stereo partly shown) and report it.
Output: 5.81
